# MEASURED ON: Aminopeptidase B (Mus musculus)
# Sequence (Q8VCT3 whole entry): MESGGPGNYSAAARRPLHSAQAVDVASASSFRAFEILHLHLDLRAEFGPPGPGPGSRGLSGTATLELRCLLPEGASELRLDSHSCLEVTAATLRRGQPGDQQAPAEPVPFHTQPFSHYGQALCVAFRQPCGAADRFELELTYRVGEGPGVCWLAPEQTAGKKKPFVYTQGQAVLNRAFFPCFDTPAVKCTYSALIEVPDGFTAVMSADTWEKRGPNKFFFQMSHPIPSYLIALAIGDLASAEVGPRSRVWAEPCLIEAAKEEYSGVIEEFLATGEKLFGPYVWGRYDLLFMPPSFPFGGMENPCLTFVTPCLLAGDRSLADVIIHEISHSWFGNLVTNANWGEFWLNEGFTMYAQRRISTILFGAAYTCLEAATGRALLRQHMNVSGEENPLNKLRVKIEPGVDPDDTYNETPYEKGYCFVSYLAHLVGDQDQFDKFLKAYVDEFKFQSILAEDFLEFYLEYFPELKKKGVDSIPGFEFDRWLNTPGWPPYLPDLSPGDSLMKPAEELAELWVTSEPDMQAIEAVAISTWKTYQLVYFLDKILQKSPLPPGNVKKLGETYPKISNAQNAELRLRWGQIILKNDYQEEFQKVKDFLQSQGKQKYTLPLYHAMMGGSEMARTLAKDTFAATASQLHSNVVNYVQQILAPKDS
READOUT NAME: IC50 (µM)
Give bare numbers, in µM.

Report IC50 for CC(C)C[C@H](NC(=O)[C@@H](O)[C@H](N)Cc1ccccc1)C(=O)O please. 160
